System: HEK-293T
Assay text: Multiplex assay against HEK293T
Format: toxicity, cell-based
Measurement context: human, 48 h, 10 µM, compound concentration 10 uM, replicate 1
Label rule, in plain words: Population Membrane Permeable-Phenotype (%) of 1% and up is Y, under 1% is N.

Compound: C[C@@]1(C(=O)Nc2ccc(F)nc2)CCCN1c1nc(Nc2cc(C3CC3)n[nH]2)c2cccn2n1
Label class: Y
--
Compound: NC(=O)Nc1cc(-c2cccc(F)c2)sc1C(=O)N[C@H]1CCCNC1
Label class: N
--
Compound: CN(C)C(=O)/C(C#N)=C/c1ccc(-c2nc3cnc4[nH]ccc4c3n2C2CCCCC2)o1
Label class: Y
--
Compound: Cn1cc(-c2[nH]c3cc(NC(=O)[C@H](N)C4CCCCC4)cc4c3c2C=NNC4=O)cn1
Label class: Y
--
Compound: CC[C@H](C)C(=O)O[C@H]1C[C@@H](C)C=C2C=C[C@H](C)[C@H](CC[C@@H]3C[C@@H](O)CC(=O)O3)[C@H]21
Label class: Y
--
Compound: COc1ncc(-c2ccc3nccc(-c4ccnnc4)c3c2)cc1NS(=O)(=O)c1ccc(F)cc1F
Label class: Y
--
Compound: CN(C)C(=O)N[C@H]1CC[C@H](CCN2CCN(c3cccc(Cl)c3Cl)CC2)CC1.Cl [CARIPRAZINE HYDROCHLORIDE]
Label class: N
--
Compound: CN1CCN(c2ccc(OC(F)(F)F)c(Nc3ncc4c(n3)-c3c(c(C(N)=O)nn3CCO)CC4)c2)CC1
Label class: Y
--
Compound: CN1CCC[C@@H]1CCO[C@](C)(c1ccccc1)c1ccc(Cl)cc1.O=C(O)/C=C/C(=O)O [CLEMASTINE FUMARATE]
Label class: N

====

System: Fibroblast
Assay text: Multiplex assay against human fibroblast
Format: toxicity, cell-based
Measurement context: 48 h, 10 µM, compound concentration 10 uM, replicate 2
Label rule, in plain words: Population Pyknosed Nuclei (%) of 9% and up is Fulfilled, under 9% is Not fulfilled.

Molecule: C[C@@H](NCCCc1cccc(C(F)(F)F)c1)c1cccc2ccccc12.Cl [CINACALCET HYDROCHLORIDE]
Label class: Fulfilled
--
Molecule: C[C@@]1(C(=O)Nc2ccc(F)nc2)CCCN1c1nc(Nc2cc(C3CC3)n[nH]2)c2cccn2n1
Label class: Fulfilled
--
Molecule: O=C1NCN(c2ccccc2)C12CCN(CCCOc1ccc(F)cc1)CC2 [SPIRAMIDE]
Label class: Not fulfilled
--
Molecule: c1cn2cc(-c3ccc4cn[nH]c4c3)nc(Nc3ccc(N4CCOCC4)cc3)c2n1
Label class: Fulfilled
--
Molecule: CCn1c(=O)c(-c2ccc(Cl)cc2Cl)cc2cnc(Nc3ccc(N4CCNCC4)c(F)c3)nc21
Label class: Not fulfilled
--
Molecule: CN1CCN(c2ccc(OC(F)(F)F)c(Nc3ncc4c(n3)-c3c(c(C(N)=O)nn3CCO)CC4)c2)CC1
Label class: Not fulfilled
--
Molecule: COc1cccc([C@@H](C)NCCCc2ccccc2Cl)c1.Cl [TECALCET HYDROCHLORIDE]
Label class: Not fulfilled
--
Molecule: CNc1nc(NCc2ccc(NS(C)(=O)=O)cc2Cl)cc(-c2ccccn2)n1
Label class: Not fulfilled
--
Molecule: C=CC(=O)Nc1cccc(C(=O)Nc2ccc(Nc3cc(-c4[nH]c(SC)nc4C)ccn3)cc2)c1
Label class: Not fulfilled
--
Molecule: CCOCCn1cc(C(=O)Nc2ccc(-n3nc(-c4cccnc4)cc3C(F)(F)F)cn2)ccc1=O
Label class: Not fulfilled
--
Molecule: CN(C)C(=O)N[C@H]1CC[C@H](CCN2CCN(c3cccc(Cl)c3Cl)CC2)CC1.Cl [CARIPRAZINE HYDROCHLORIDE]
Label class: Not fulfilled
--
Molecule: Cc1c(-c2ccc(O)cc2)n(Cc2ccc(OCCN3CCCCCC3)cc2)c2ccc(O)cc12
Label class: Fulfilled
--
Molecule: Cc1csc2c(N[C@@H](C)CN3CCN(S(=O)(=O)c4ccc(Cl)c(Cl)c4)CC3)ncnc12
Label class: Not fulfilled
--
Molecule: Cl.N#Cc1ccc2[nH]cc(CCCCN3CCN(c4ccc5oc(C(N)=O)cc5c4)CC3)c2c1 [VILAZODONE HYDROCHLORIDE]
Label class: Fulfilled
--
Molecule: CC(C)NCC(O)COc1ccc(CCOCC2CC2)cc1.Cl (configuration not stated) [BETAXOLOL HYDROCHLORIDE]
Label class: Not fulfilled
